The measurements presented in this section are drawn from PubChem BioAssay (NCI).

- Test system: ACHN renal
- EXPERIMENTAL DETAILS: NCI tumour cell line growth inhibition, 48 h
Where a SMILES comes first, the peptide text is derived from it. [ ]: non-standard residue; d: D form. pGlu = O=C1CC[CH](C(=O)O)N1; Thz = O=C(O)[CH]1CSCN1
QUANTITY KIND: TGI

- COMPOUND: "COC(=O)C(Cc1c[nH]c2ccccc12)NC(=O)C(Cc1cnc[nH]1)NC(=O)C1CCC(=O)N1C(=O)OCc1ccccc1 (centres undefined)"
  QUANTITY KIND: "TGI"
  ENDPOINT VALUE: "> 100 µM"
- COMPOUND: "COc1ccc2c(c1)c1c3c(ccc4ncn2c43)N(CCO)CCN=1"
  QUANTITY KIND: "TGI"
  ENDPOINT VALUE: "0.543 µM"
- COMPOUND: "COc1cc(CCC[P+](c2ccccc2)(c2ccccc2)c2ccccc2)c(OC)c2c1OCO2"
  QUANTITY KIND: "TGI"
  ENDPOINT VALUE: "21 µM"

Below: the item to evaluate.
## Input Entry O=C1CCC(C(=O)N2CSCC2C(=O)O)N1 (centres undefined) ([pGlu]-[Thz]-OH; configuration not given here) : reported TGI = ?
## Output > 100 µM
